target: acetylcholinesterase (AChE) (Mus musculus, UniProt P21836); construct: Crude enzymes, AChE (acetylcholinesterase) and BChE (butyrylcholinesterase) were collected from brain of mice and blood of humans, respectively; from tissue; host or cells: mouse brain; experiment: biochemical
Sequence (P21836 32-614): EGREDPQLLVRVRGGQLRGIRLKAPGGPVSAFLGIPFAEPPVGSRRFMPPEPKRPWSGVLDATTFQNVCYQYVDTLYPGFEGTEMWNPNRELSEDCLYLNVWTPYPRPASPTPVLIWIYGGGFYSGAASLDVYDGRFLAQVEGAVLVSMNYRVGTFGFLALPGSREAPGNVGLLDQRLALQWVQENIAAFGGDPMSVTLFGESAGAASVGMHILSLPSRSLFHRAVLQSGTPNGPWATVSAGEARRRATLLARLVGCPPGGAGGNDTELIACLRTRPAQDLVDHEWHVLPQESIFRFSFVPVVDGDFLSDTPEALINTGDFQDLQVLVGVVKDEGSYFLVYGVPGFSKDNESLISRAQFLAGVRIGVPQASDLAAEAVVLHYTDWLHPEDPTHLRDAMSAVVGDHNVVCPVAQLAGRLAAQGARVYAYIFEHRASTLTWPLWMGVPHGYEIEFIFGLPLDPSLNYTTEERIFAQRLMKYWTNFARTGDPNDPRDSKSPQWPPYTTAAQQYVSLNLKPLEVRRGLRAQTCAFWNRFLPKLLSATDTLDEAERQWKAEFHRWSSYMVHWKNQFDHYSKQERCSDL
Reported property: pIC50
As a rule, pIC50 stands for the negative log10 of the concentration, concentration in M.

Task item: Retrieve pIC50 measured for CC[C@@H](/C=C/[C@@H](C)C1CCC2C3CCC4C[C@@H](O)CC[C@]4(C)C3CC[C@@]21C)C(C)C (stereo partly drawn) [Compound 2, stigmasta-22-ene-3-β-ol] and print it.
Reply: 3.78

----------
test: DPPH radical scavenging activity; conditions: Conc 20 µg/mL; average of trials A-C
// values below are reported AA (mg/gm) Avg (DPPH activity)
Write the answer as a number in mg/gm, unit excluded.

Look over these answered cases.
>  <Compound>
CCCCCCCCCCCCCCCCCCCCCCCCCCCCCCCC(=O)O[C@H]1C[C@H](O)[C@]2(C)C3=CC=C4[C@@H]5CC(CO)(C(=O)O)CC[C@]5(C)CC[C@@]4(C)[C@]3(C)CCC2C1(C)C (stereo partly shown) [Compound 3]

>  <Units of measure>
mg/gm

>  <Observed value>
4.67

$$$$
>  <Compound>
CC[C@@H](/C=C/[C@@H](C)C1CCC2C3CCC4C[C@@H](O)CC[C@]4(C)C3CC[C@@]21C)C(C)C (stereo partly drawn) [Compound 2, stigmasta-22-ene-3-β-ol]

>  <Units of measure>
mg/gm

>  <Observed value>
7.60

$$$$
>  <Compound>
O=C1O[C@H]([C@@H](O)CO)C(O)=C1O [Ascorbic acid, ascorbic acid, reference compound]

>  <Units of measure>
mg/gm

>  <Observed value>
3.12

$$$$

Task item: Specify reported AA (mg/gm) Avg (DPPH activity) for the compound shown: CCCCCCCCCCCCCCCCCCCCC(O)C(=O)O (stereo not shown) [Compound 1, 2-hydroxydocosanoic acid]
Reply: 10.82

----------
Below, each of the compounds is paired with its reported Gal (mg/gm) Avg (BChE inhibitory activity) value.
biological target: butyrylcholinesterase (BChE) (Homo sapiens); construct: Crude enzymes, AChE (acetylcholinesterase) and BChE (butyrylcholinesterase) were collected from brain of mice and blood of humans, respectively; from tissue; host or cells: human blood; test: biochemical; conditions: Conc 10 µg/mL; average of trials A-C
// return numeric value only (unit: mg/gm, not printed)

>  <Compound>
CC[C@@H](/C=C/[C@@H](C)C1CCC2C3CCC4C[C@@H](O)CC[C@]4(C)C3CC[C@@]21C)C(C)C (stereo partly shown)

>  <Observed value>
49.52

$$$$
>  <Compound>
COc1ccc2c3c1O[C@H]1C[C@@H](O)C=C[C@@]31CCN(C)C2 [Galantamine, reference compound]

>  <Observed value>
10.27

$$$$
>  <Compound>
CCCCCCCCCCCCCCCCCCCCC(O)C(=O)O (stereo not shown) [Compound 1, 2-hydroxydocosanoic acid]

>  <Observed value>
137.76

$$$$

Please turn your attention to the following entry.
Task item: Supply measured Gal (mg/gm) Avg (BChE inhibitory activity) of CCCCCCCCCCCCCCCCCCCCCCCCCCCCCCCC(=O)O[C@H]1C[C@H](O)[C@]2(C)C3=CC=C4[C@@H]5CC(CO)(C(=O)O)CC[C@]5(C)CC[C@@]4(C)[C@]3(C)CCC2C1(C)C (stereo partly shown) in your reply.
Reply: 32.68

----------
target: butyrylcholinesterase (BChE) (Homo sapiens, UniProt P06276); construct: Crude enzymes, AChE (acetylcholinesterase) and BChE (butyrylcholinesterase) were collected from brain of mice and blood of humans, respectively; from tissue; host or cells: human blood; experiment: biochemical
Sequence (P06276 29-602): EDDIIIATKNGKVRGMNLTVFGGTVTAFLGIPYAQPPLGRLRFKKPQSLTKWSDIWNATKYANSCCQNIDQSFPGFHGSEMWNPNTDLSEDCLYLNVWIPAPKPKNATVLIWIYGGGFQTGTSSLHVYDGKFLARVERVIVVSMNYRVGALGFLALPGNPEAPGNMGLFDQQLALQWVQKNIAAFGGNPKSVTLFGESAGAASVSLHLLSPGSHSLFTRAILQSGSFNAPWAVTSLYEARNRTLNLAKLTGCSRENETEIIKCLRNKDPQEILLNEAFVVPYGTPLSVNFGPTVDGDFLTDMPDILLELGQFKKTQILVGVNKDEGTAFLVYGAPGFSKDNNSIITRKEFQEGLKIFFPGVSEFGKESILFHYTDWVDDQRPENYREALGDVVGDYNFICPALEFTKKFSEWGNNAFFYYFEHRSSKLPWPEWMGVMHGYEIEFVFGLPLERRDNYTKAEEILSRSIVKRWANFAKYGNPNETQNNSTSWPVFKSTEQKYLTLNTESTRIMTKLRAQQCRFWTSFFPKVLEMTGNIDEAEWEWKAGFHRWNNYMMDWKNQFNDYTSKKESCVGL
Reported property: pIC50
Worth noting: pIC50 values are minus log10 of concentrations stated in mol/L.

Task item: Given CC[C@@H](/C=C/[C@@H](C)C1CCC2C3CCC4C[C@@H](O)CC[C@]4(C)C3CC[C@@]21C)C(C)C (stereo partly drawn) [Compound 2, stigmasta-22-ene-3-β-ol] , respond with its pIC50.
Reply: 3.92
